Values compiled from paper PMC5748027.

- measurement_target: A2B human receptor (A2BR) (Homo sapiens)
- Construct: expressed in transfected cells; host or cells: HEK-293
- test_details: Radioligand binding competition assay, human A2B receptor in transfected HEK-293 cells
- condition_description: 0.1 µM compound; read-out: percentage displacement at 0.1µM (A2BR)
endpoint: inhibition at 0.1 µM (%)

compound_smiles	val
COc1ccccc1-c1cc(-c2ccco2)nc(N)c1C#N	2
N#Cc1c(-c2ccccc2Cl)cc(-c2ccc(O)cc2)nc1N	8
N#Cc1c(-c2ccccc2F)cc(-c2ccccc2F)nc1N	1
N#Cc1c(C2CCCCC2)cc(-c2ccccc2F)nc1N	2
Cc1ccccc1-c1cc(C2CCCCC2)c(C#N)c(N)n1	1
COc1ccc(-c2cc(-c3ccco3)nc(N)c2C#N)cc1	33
N#Cc1c(C2CCCCC2)cc(-c2ccccc2)nc1N	1
COc1ccc(-c2cc(-c3ccccc3C)nc(N)c2C#N)cc1	4
COc1ccc(-c2cc(-c3ccccc3F)nc(N)c2C#N)cc1	1
COc1ccccc1-c1cc(-c2ccc(O)cc2)nc(N)c1C#N	1

* * *

inhibition at 10 µM for assorted compounds
- measurement_target: human PDE10A (Homo sapiens, UniProt Q9Y233)
- Construct: expressed in transfected cells; host or cells: AD293 (transient transfection)
- Sequence (Q9Y233 267-1055 limits assumed): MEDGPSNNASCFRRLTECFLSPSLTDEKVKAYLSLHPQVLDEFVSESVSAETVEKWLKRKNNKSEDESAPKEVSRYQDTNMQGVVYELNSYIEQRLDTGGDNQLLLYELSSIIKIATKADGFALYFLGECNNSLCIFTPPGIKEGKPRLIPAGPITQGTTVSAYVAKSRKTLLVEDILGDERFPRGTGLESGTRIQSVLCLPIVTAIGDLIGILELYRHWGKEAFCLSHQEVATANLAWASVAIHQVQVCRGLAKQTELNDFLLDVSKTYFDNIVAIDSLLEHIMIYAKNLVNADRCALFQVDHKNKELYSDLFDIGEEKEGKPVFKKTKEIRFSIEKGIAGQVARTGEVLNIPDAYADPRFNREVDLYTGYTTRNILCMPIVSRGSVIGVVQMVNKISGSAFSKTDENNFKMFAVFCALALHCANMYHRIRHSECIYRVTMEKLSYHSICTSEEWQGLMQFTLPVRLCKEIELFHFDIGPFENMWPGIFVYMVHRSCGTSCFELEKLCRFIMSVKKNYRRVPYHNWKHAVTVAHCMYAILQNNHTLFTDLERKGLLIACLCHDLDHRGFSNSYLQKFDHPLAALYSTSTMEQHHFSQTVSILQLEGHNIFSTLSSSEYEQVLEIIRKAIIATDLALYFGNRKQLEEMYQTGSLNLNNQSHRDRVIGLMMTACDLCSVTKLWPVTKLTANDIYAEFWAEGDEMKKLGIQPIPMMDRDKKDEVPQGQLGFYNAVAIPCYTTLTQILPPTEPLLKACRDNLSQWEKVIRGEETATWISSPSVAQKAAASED
- test_details: Phosphodiesterase activity, AD293 cells transiently transfected with human PDE10A
- Assay type: biochemical
- condition_description: read-out: % inhibition at 10 μM (PDE10A); 10 μM compound
endpoint: inhibition at 10 µM (%)

compound_smiles	unit_label	val
COc1ccc(-c2cc(-c3ccc(O)cc3)nc(N)c2C#N)cc1	%	65
COc1ccc(-c2cc(-c3ccccc3F)nc(N)c2C#N)cc1	%	10
COc1ccccc1-c1cc(-c2ccccc2F)nc(N)c1C#N	%	73
N#Cc1c(C2CCCCC2)cc(-c2ccco2)nc1N	%	55
COc1ccccc1-c1cc(-c2ccccc2)nc(N)c1C#N	%	28
N#Cc1c(-c2ccccc2)cc(-c2ccc(O)cc2)nc1N	%	52
N#Cc1c(-c2ccccc2)cc(-c2ccc(F)cc2)nc1N	%	22
N#Cc1c(-c2ccc3c(c2)OCO3)cc(-c2ccccc2)nc1N	%	17
N#Cc1c(-c2ccccc2F)cc(-c2ccccc2F)nc1N	%	38
N#Cc1c(C2CCCCC2)cc(-c2ccccc2F)nc1N	%	68

* * *

- measurement_target: A2B human receptor (A2BR) (Homo sapiens, UniProt P29275)
- Construct: expressed in transfected cells; host or cells: HEK-293
- Sequence (P29275 whole entry): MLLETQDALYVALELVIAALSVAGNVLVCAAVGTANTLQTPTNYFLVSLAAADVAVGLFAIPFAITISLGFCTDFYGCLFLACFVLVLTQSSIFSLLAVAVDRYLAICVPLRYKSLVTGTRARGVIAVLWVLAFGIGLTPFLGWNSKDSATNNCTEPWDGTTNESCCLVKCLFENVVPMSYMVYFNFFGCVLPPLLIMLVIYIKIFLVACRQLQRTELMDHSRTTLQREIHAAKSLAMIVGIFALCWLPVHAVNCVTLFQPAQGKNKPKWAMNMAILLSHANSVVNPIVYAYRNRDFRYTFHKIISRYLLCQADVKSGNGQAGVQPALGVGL
- test_details: Radioligand binding competition assay, human A2B receptor in transfected HEK-293 cells
- condition_description: 0.1 µM compound; read-out: percentage displacement at 0.1µM (A2BR)
endpoint: inhibition at 0.1 µM

compound_smiles	measurement_target	val
N#Cc1c(-c2ccc3c(c2)OCO3)cc(-c2ccccc2)nc1N	A2B human receptor (A2BR) (Homo sapiens, UniProt P29275)	1%
N#Cc1c(-c2ccccc2)cc(-c2ccc(O)cc2)nc1N	A2B human receptor (A2BR) (Homo sapiens, UniProt P29275)	2%
N#Cc1c(C2CCCCC2)cc(-c2ccsc2)nc1N	A2B human receptor (A2BR) (Homo sapiens, UniProt P29275)	2%
COc1ccccc1-c1cc(-c2ccccc2C)nc(N)c1C#N	A2B human receptor (A2BR) (Homo sapiens, UniProt P29275)	3%
COc1ccccc1-c1cc(-c2ccccc2)nc(N)c1C#N	A2B human receptor (A2BR) (Homo sapiens, UniProt P29275)	5%
